# Tested on: Human LDLs
# experiment notes: Oxidation of human LDL by cupric ions (fluorescence), antioxidant effect
# Format: biochemical
# condition details: oxidation of human lipoproteins; compounds of formula II (Table C)
Reported IC50 values for a set of compounds
Quick reminder: number only, in µM, skip the unit.

COc1ccc(Nc2cccc(C(=O)Nc3cccnc3)c2)cc1 : 9.1
COc1ccc(Nc2cccc(C(=O)Nc3ccccn3)c2)cc1 [Example 134a] : 4.5
COc1ccc(Nc2cccc(C(=O)Nc3ccncc3)c2)cc1 [Example 135a] : 7.5

Inquiry: Recorded IC50 for COc1ccc(Nc2ccc(S(=O)(=O)Nc3cccnc3)cc2)cc1 [Example 136a] , please?
Reply text: 19.8

Inquiry: Recorded IC50 of COc1ccc(Nc2ccc(C(=O)Nc3ccccc3)cc2)cc1 [Example 33a] , please.
Reply text: 12.9

Inquiry: Value lookup for IC50; key = COc1ccc(Nc2cccc(C(=O)NCc3cccnc3)c2)cc1 [Example 132a]
Reply text: 7.7

Inquiry: Requested read-out: IC50. Entry: `COc1ccc(Nc2ccc(C(=O)Nc3cccc([N+](=O)[O-])c3)cc2)cc1`
Reply text: 10

###

Here the recorded Nitrites-Nitrates is given for each entry.
# experiment notes: Spontaneous release of nitric oxide, titrated as nitrites+nitrates (Griess reagent, nitrate reductase)
# condition details: nitrites+nitrates released; test product 150 μM, 4 hours at 37° C., pH 7.5 PBS buffer; compounds of formula I
Enter your answer as a number in µM; do not include the unit.

Solved entries (count: 4):
COc1ccc(N(N=O)c2ccc(C(=O)Nc3ccncc3)cc2)cc1 [Example 15b] : 82
COc1ccc(N(N=O)c2ccc(C(=O)Nc3ccccn3)cc2)cc1 [Example 14b] : 90
COc1ccc(N(N=O)c2cccc(C(=O)NCc3cccnc3)c2)cc1 [Example 132b] : 82
O=NN(c1ccc(C(=O)Nc2cccnc2)cc1)c1ccc([N+](=O)[O-])cc1 [Example 5b] : 47

Alright, here's another molecule for you.
Inquiry: Nitrites-Nitrates for COc1ccc(N(N=O)c2cccc(C(=O)Nc3ccncc3)c2)cc1 [Example 135b] ?
Reply text: 75

Cited source for all entries: patent US20050154232A1
